The origin of these recorded values is ChEMBL document CHEMBL1150387.

target: Proto-oncogene tyrosine-protein kinase Src (Homo sapiens); assay: Inhibition of Src at 10 uM by HTRF assay relative to control
This section presents compounds with their documented inhibition values.
PROPERTY: inhibition (%)

• O=C(c1nc(SCc2ccc(Cl)cc2)n2ccccc12)N1CCN(c2cc(Nc3cccc(Br)c3)ncn2)CC1 = 2
• O=C(C1CCN(c2nccc(Nc3ccccc3)n2)CC1)N1CC[C@@H](O)C1 = 4
• Cc1cccc(N(C)c2cc(N3CCN(CC(=O)Nc4nc(-c5ccccc5)cs4)CC3)ncn2)c1 = 0
• Cc1cccc(Nc2ncnc3c2CN(C(=O)c2ccc(N(C)C)c4ccccc24)CC3)c1 = 0
• O=C(CN1CCN(c2ncnc3c2CN(Cc2ccccc2)CC3)CC1)Nc1cc(F)ccc1F = 1
• CN(C)CC(C)(C)CNC(=O)c1cccc(Nc2nccc(Nc3ccc4ncsc4c3)n2)c1 = 99
• O=C(NCc1cccnc1)c1cccc(-c2ccc(Nc3ccc4ncsc4c3)nn2)c1 = 11
• Nc1nc(N2CCOCC2)cc(N2CCC(C(=O)NCCc3ccc(O)cc3)CC2)n1 = 2
• COc1cccc(Nc2cc(N3CCC[C@H]3C(=O)NCCN3CCCCC3)nc(N)n2)c1 = 1
• Cc1cccc(Nc2nccc(Nc3cccc(C(=O)NCc4ccc(N(C)C)cc4)c3)n2)c1 = 8
• Cc1cc(C(=O)N2CCN(c3ncnc4c3CN(Cc3ccccc3)CC4)CC2)c(C)n1C = 0
• Cc1cccc(Nc2nccc3c2CN(C(=O)c2cc(C)n(C)c2C)CC3)c1 = 0
• Cc1cccc(Oc2ccnc(N3CCN(CC(=O)Nc4cccc5c4CCCC5)CC3)n2)c1 = 5
• Nc1nc(Nc2ccc(C(=O)NCCc3ccncc3)cc2)cc(N2CCOCC2)n1 = 3
• O=C(NC[C@@H]1CCCO1)c1cccc(Nc2nccc(Nc3ccc4ncsc4c3)n2)c1 = 97
• Nc1nc(Nc2ccc3ncsc3c2)cc(N2CCC[C@H]2C(=O)N[C@@H](CO)c2ccccc2)n1 = 0
• O=C(c1nc(SCc2ccc(Cl)cc2)n2ccccc12)N1CCN(c2ncnc3c2CN(Cc2ccccc2)CC3)CC1 = 0

---

Below: a set of entries, each annotated with reported inhibition.
target: Mitogen-activated protein kinase 12 (Homo sapiens) (UniProt P53778); experiment: Inhibition of p38-gamma at 10 uM by HTRF assay relative to control
Sequence (P53778 whole entry): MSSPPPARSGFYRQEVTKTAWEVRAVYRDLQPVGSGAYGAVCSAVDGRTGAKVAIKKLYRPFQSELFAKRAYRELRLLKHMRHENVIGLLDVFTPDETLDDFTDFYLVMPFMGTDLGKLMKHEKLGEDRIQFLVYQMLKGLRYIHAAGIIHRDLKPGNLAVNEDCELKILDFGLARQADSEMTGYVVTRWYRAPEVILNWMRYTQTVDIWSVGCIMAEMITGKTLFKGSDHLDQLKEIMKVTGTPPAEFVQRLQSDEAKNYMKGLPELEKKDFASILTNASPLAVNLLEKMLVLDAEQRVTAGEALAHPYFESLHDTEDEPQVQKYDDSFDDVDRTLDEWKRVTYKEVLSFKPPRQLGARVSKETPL
PROPERTY: inhibition (%)

* Nc1nc(N2CCOCC2)cc(N2CCC(C(=O)NCCc3ccc(O)cc3)CC2)n1 | 0
* Cc1cccc(N(C)c2cc(Nc3cccc(C(=O)N4CCCC5CCCCC54)c3)ncn2)c1 (centres undefined) | 1
* Cc1ccc(CN2CCN(c3nccc(C(C#N)c4ccccn4)n3)CC2)cc1 (centres undefined) | 0
* Cc1cccc(N(C)c2cc(Nc3cccc(C(=O)N(C)CCc4ccccn4)c3)ncn2)c1 | 1
* Nc1nc(Nc2ccc3ncsc3c2)cc(N2CCC[C@H]2C(=O)NCCc2cccc(I)c2)n1 | 2
* COc1cccc(Nc2cc(N3CCC[C@H]3C(=O)NCCN3CCCCC3)nc(N)n2)c1 | 0
* CN(CCc1ccccn1)C(=O)[C@@H]1CCCN1c1nccc(Nc2ccccc2)n1 | 2
* CN(CCCn1ccnc1)C(=O)[C@@H]1CCCN1c1nccc(Nc2ccccc2)n1 | 1
* COc1cccc(Nc2cc(Nc3cccc(C(=O)NCCCn4ccnc4)c3)nc(N)n2)c1 | 17
